Tested on: Wild type MpGDH
Test: Maltose/glucose response current ratio, IPPD/MpGDH-immobilized screen-printed electrode (chronoamperometry)
Type: biochemical, Mucor prainii
Settings: 5 mM additive; immobilized wild type MpGDH; no modifier = 100%
QUANTITY KIND: Relative value (%) of Maltose/Glucose

> print(dat)
                                   molecule  reading
1  OC[C@@H](O)[C@@H](O)[C@@H](O)CO [Ribitol, ribitol]       17
2  OC[C@@H](O)[C@@H](O)[C@H](O)[C@@H](O)CO [Sorbitol, sorbitol]       43
3  OC[C@@H](O)[C@H](O)[C@@H](O)[C@H](O)CO [D-iditol]       22
4  O=C[C@@H](O)[C@@H](O)[C@H](O)[C@@H](O)CO [L-gulose]       74
5  OC[C@H]1OC=C[C@@H](O)[C@@H]1O [D-glucal]       69

----------
Tested on: GLD1 (glucose dehydrogenase (FAD-dependent), BBI Solutions)
Test: Maltose/glucose response current ratio, unimmobilized GLD1 with mPMS (chronoamperometry)
Assay type: biochemical, Aspergillus
Settings: 5 mM additive, no modifier = 100%
Reported Relative value (%) of Maltose/Glucose is given for each of the following compounds.
QUANTITY KIND: Relative value (%) of Maltose/Glucose

> print(dat)
                                   compound  reading
1  OC[C@H]1OC=C[C@@H](O)[C@@H]1O [D-glucal]       76
2  OC[C@@H](O)[C@@H](O)[C@@H](O)CO [Ribitol, ribitol]       88
3  OC[C@H](O)[C@@H](O)[C@H](O)[C@@H](O)CO [L-iditol]       76
4  OC[C@H]1O[C@H](O[C@H]2O[C@H](CO)[C@@H](O)[C@H](O)[C@H]2O)[C@H](O)[C@@H](O)[C@@H]1O [Trehalose, trehalose]       85
5  O=C[C@@H](O)[C@@H](O)[C@H](O)[C@@H](O)CO [L-gulose]       70

----------
Reported Relative value (%) of Maltose/Glucose is given for each of the following compounds.
Test system: MrdGDH
Assay: Maltose/glucose response current ratio, unimmobilized MrdGDH with mPMS (chronoamperometry)
Assay type: biochemical, Mucor RD056860
Details: 5 mM additive, no modifier = 100%
QUANTITY KIND: Relative value (%) of Maltose/Glucose

> print(dat)
                                   compound  units.symbol  reading
1  O=C[C@@H](O)[C@@H](O)[C@H](O)[C@@H](O)CO [L-gulose]             %       90
2  OC[C@@H](O)[C@@H](O)[C@@H](O)CO [Ribitol, ribitol]             %       71
3  OC[C@@H](O)[C@@H](O)[C@H](O)[C@@H](O)CO [Sorbitol, sorbitol]             %       74
4  OC[C@H]1O[C@H](O[C@H]2O[C@H](CO)[C@@H](O)[C@H](O)[C@H]2O)[C@H](O)[C@@H](O)[C@@H]1O [Trehalose, trehalose]             %       71
5  OC[C@@H](O)[C@H](O)[C@@H](O)[C@H](O)CO [D-iditol]             %       70

----------
System: MpGDH
Assay: Maltose/glucose response current ratio, unimmobilized MpGDH with mPMS (chronoamperometry)
Assay type: biochemical, Mucor prainii
Conditions: unimmobilized MpGDH; mPMS; 5 mM maltose; +100 mV
QUANTITY KIND: maltose/glucose relative to MpGDH considered as 100% (%)

> print(dat)
                                     smiles  target.desc  reading
1  OC[C@H]1O[C@H](O[C@H]2O[C@H](CO)[C@@H](O)[C@H](O)[C@H]2O)[C@H](O)[C@@H](O)[C@@H]1O        MpGDH       72
2    OC[C@H](O)[C@@H](O)[C@H](O)[C@@H](O)CO        MpGDH       68
3           OC[C@@H](O)[C@@H](O)[C@@H](O)CO        MpGDH       58
4   OC[C@@H](O)[C@@H](O)[C@H](O)[C@@H](O)CO        MpGDH       67
5    OC[C@@H](O)[C@H](O)[C@@H](O)[C@H](O)CO        MpGDH       84
6  O=C[C@@H](O)[C@@H](O)[C@H](O)[C@@H](O)CO        MpGDH       56

----------
Tested on: GLD1 (glucose dehydrogenase (FAD-dependent), BBI Solutions)
Assay: Maltose/glucose response current ratio, IPPD/GLD1-immobilized screen-printed electrode (chronoamperometry)
Assay type: biochemical, Aspergillus
Conditions: 5 mM additive, no modifier = 100%
QUANTITY KIND: Relative value (%) of Maltose/Glucose

> print(dat)
                                     smiles                               target.desc  reading
1    OC[C@H](O)[C@@H](O)[C@H](O)[C@@H](O)CO  GLD1 (glucose dehydrogenase (FAD-dependent), BBI Solutions)       0%
2    OC[C@@H](O)[C@H](O)[C@@H](O)[C@H](O)CO  GLD1 (glucose dehydrogenase (FAD-dependent), BBI Solutions)       4%
3  OC[C@H]1O[C@H](O[C@H]2O[C@H](CO)[C@@H](O)[C@H](O)[C@H]2O)[C@H](O)[C@@H](O)[C@@H]1O  GLD1 (glucose dehydrogenase (FAD-dependent), BBI Solutions)      35%
4             OC[C@H]1OC=C[C@@H](O)[C@@H]1O  GLD1 (glucose dehydrogenase (FAD-dependent), BBI Solutions)      30%
5  O=C[C@@H](O)[C@@H](O)[C@H](O)[C@@H](O)CO  GLD1 (glucose dehydrogenase (FAD-dependent), BBI Solutions)       0%

----------
System: GLD1 (glucose dehydrogenase (FAD-dependent), BBI Solutions)
Assay: Maltose/glucose response current ratio, unimmobilized GLD1 with mPMS (chronoamperometry)
Format: biochemical, Aspergillus
Conditions: 5 mM additive, mPMS
QUANTITY KIND: Maltose/Glucose (%)

> print(dat)
                                   compound  reading
1  O=C[C@@H](O)[C@@H](O)[C@H](O)[C@@H](O)CO [L-gulose]    0.23%
2  OC[C@H]1OC=C[C@@H](O)[C@@H]1O [D-glucal]    0.25%
3  OC[C@@H](O)[C@@H](O)[C@@H](O)CO [Ribitol, ribitol]    0.29%
4  OC[C@H](O)[C@@H](O)[C@H](O)[C@@H](O)CO [L-iditol]    0.25%
5  OC[C@H]1O[C@H](O[C@H]2O[C@H](CO)[C@@H](O)[C@H](O)[C@H]2O)[C@H](O)[C@@H](O)[C@@H]1O [Trehalose, trehalose]    0.28%

----------
Reported Maltose/Glucose (%) is given for each of the following compounds.
Tested on: GLD1 (glucose dehydrogenase (FAD-dependent), BBI Solutions)
Test: Maltose/glucose response current ratio, IPPD/GLD1-immobilized screen-printed electrode (chronoamperometry)
Assay type: biochemical, Aspergillus
Conditions: 5 mM additive, 1 mM maltose, 1 mM glucose
Excerpt: The ratio (Mal/Glu) of the reactivity of the glucose dehydrogenase to maltose (Mal) relative to the reactivity thereof to glucose (Glu) can be determined by the following procedures. […] The substrate specificity of glucose dehydrogenase can be evaluated by measuring the reactivity thereof to maltose when the reactivity thereof to glucose is considered as 100%. […]
QUANTITY KIND: Maltose/Glucose (%)

> print(dat)
                                   compound  reading
1  O=C[C@@H](O)[C@@H](O)[C@H](O)[C@@H](O)CO [L-gulose]        0
2  OC[C@H]1OC=C[C@@H](O)[C@@H]1O [D-glucal]     0.09
3  OC[C@H]1O[C@H](O[C@H]2O[C@H](CO)[C@@H](O)[C@H](O)[C@H]2O)[C@H](O)[C@@H](O)[C@@H]1O [Trehalose, trehalose]     0.08
4  OC[C@H](O)[C@@H](O)[C@H](O)[C@@H](O)CO [L-iditol]        0
5  OC[C@@H](O)[C@H](O)[C@@H](O)[C@H](O)CO [D-iditol]     0.01
